assay: self-splicing fitness, log relative to wild type (ln ratio); higher = more splicing; Tetrahymena group I intron in knt gene, E. coli kanamycin selection, DiMSum; sequences stand for … in CUCUCU…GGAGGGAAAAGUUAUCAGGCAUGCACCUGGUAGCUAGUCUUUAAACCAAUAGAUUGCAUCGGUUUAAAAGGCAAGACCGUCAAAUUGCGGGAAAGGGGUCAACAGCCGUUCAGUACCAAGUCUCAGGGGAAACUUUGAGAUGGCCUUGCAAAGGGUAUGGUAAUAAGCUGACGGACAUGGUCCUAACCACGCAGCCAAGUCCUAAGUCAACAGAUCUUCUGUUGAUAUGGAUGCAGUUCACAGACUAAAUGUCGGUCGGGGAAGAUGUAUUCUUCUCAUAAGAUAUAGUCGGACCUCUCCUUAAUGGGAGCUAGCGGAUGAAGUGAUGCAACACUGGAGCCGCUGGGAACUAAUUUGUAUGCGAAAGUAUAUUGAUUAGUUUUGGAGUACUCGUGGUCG; settings: 30 °C;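 further: selection with 25 µg/mL kanamycin versus none on LB agar overnight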
Please enter yes where self-splicing fitness (ln) is greater than or equal to -2, and no where it is lower.

>>> df
           sequence_text  group_label
 0  ACUUAGCAAUAUUACGAGUA          yes
 1  AAGGAGCAAUAUUACGAGUA           no
 2  UGCUAGCAAUAUUACGCUAG           no
 3  AAGUAGCAAUAUUACGUUUU           no
 4  UGCAAGCAAUAUUACGCGAG           no
 5  UUCGAGCAAUAUUACGGGGC           no
 6  CCGUAGCAAUAUUACGAAUG          yes
 7  CUUCAGCAAUAUUACGAAGG           no
 8  CCCGAGCAAUAUUACGAAAG           no
 9  CAAGAGCAAUAUUACGGAAU           no
10  AUUAAGCAAUAUUACGAGUA           no
11  CCGAAGCAAUAUUACGAAUA           no
12  UUUGAGCAAUAUUACGAUAA          yes
13  CUUUAGCAAUAUUACGUUCU           no
14  ACAUAGCAAUAUUACGCGCU          yes
15  UUCGAGCAAUAUUACGGAAU           no

====

assay: self-splicing fitness, log relative to wild type (ln ratio); higher = more splicing; Tetrahymena group I intron in knt gene, E. coli kanamycin selection, DiMSum; sequences stand for … in CUCUCU…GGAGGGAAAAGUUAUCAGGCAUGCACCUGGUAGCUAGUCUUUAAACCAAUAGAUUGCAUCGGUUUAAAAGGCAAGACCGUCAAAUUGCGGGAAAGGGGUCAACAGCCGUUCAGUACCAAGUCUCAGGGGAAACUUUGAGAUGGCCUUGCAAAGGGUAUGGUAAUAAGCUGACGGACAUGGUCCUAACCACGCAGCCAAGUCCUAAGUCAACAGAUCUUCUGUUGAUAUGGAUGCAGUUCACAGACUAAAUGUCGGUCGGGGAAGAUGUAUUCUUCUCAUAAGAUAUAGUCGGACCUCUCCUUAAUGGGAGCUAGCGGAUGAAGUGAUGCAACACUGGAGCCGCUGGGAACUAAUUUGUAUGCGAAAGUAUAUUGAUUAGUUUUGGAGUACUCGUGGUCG; details: 37 °C
READOUT_LABEL: self-splicing fitness (ln)

>>> print(df.to_string())
           sequence_text  observed_result
 0  CGCCAGCAAUAUUACGGGUC             -2.6
 1  GCCUAGCAAUAUUACGUCCU           -0.494
 2  UGUUAGCAAUAUUACGUAUU            -2.12
 3  AGGGAGCAAUAUUACGUACA            -2.46
 4  AUGAAGCAAUAUUACGGUUU           -0.875
 5  CGUGAGCAAUAUUACGAUAA            -2.68
 6  CGUUAGCAAUAUUACGACCG           -0.193
 7  AACGAGCAAUAUUACGUUAC           -0.155
 8  CCCGAGCAAUAUUACGGGUA            -3.43
 9  AUGCAGCAAUAUUACGAGCU           -0.565
10  AUACAGCAAUAUUACGUUCC           -0.684
11  AUACAGCAAUAUUACGUGAG           -0.677
12  UCCUAGCAAUAUUACGACGG           -0.657
13  AUCAAGCAAUAUUACGGACA           -0.478
14  UGCUAGCAAUAUUACGUAUU            -1.72
15  UCUGAGCAAUAUUACGCCCG            -2.38

====

The following sequences are shown together with reported self-splicing fitness (ln) values.
experiment: self-splicing fitness, log relative to wild type (ln ratio); higher = more splicing; Tetrahymena group I intron in knt gene, E. coli kanamycin selection, DiMSum; sequences stand for … in CUCUCU…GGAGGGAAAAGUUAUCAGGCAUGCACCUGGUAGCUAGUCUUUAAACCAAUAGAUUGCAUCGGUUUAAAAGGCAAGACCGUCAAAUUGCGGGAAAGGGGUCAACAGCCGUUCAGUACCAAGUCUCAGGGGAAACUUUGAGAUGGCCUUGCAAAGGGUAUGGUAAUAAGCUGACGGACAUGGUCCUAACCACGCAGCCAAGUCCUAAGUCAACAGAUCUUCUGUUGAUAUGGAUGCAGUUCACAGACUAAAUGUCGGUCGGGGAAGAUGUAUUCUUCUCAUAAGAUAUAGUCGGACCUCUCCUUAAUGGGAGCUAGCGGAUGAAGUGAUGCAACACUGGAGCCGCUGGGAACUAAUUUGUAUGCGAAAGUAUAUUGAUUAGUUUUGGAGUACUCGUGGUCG; conditions: 37 °C
READOUT_LABEL: self-splicing fitness (ln)

>>> print(df.to_string())
           sequence_text  observed_result
 0  CCAUAGCAAUAUUACGUUUC           -0.309
 1  UUGAAGCAAUAUUACGGGAU               -1
 2  UUAUAGCAAUAUUACGGACG           -0.128
 3  UCAGAGCAAUAUUACGUUAC            -1.55
 4  CCCCAGCAAUAUUACGAAUU            -1.59
 5  GCACAGCAAUAUUACGUGUA           -0.512
 6  UGACAGCAAUAUUACGAUUC            -2.09
 7  AGGCAGCAAUAUUACGAUGC             -2.8
 8  UGGUAGCAAUAUUACGUAUC            -2.38
 9  AAACAGCAAUAUUACGCACC           -0.254
10  GUCCAGCAAUAUUACGAGCG           -0.864
11  CUGCAGCAAUAUUACGCGAU           -0.167
12  CUCGAGCAAUAUUACGAAGC            -3.28
13  GUGCAGCAAUAUUACGGGGC            -2.63
14  UUCGAGCAAUAUUACGUUGU            -2.75
15  AUCGAGCAAUAUUACGGAAA            -2.64

====

experiment: self-splicing fitness, log relative to wild type (ln ratio); higher = more splicing; Tetrahymena group I intron in knt gene, E. coli kanamycin selection, DiMSum; sequences stand for … in CUCUCU…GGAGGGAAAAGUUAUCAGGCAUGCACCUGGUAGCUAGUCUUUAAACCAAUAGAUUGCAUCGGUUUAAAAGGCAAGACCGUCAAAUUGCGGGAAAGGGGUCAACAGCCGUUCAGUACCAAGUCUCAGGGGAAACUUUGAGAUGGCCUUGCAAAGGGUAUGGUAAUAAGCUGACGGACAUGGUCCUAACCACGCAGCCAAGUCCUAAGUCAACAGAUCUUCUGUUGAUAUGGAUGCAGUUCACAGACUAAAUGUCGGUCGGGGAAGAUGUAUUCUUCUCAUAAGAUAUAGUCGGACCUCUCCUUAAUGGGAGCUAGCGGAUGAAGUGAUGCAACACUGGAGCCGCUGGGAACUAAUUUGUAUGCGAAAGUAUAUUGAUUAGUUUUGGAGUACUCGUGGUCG; details: 37 °C
Please enter Condition met where self-splicing fitness (ln) is greater than or equal to -2, and Condition not met where it is lower.

In [3]: df
Out[3]:
           sequence_text        group_label
 0  GCGAAGCAAUAUUACGGGAG  Condition not met
 1  AAACAGCAAUAUUACGACUC      Condition met
 2  CCUUAGCAAUAUUACGAUCC  Condition not met
 3  AUCUAGCAAUAUUACGGGUU  Condition not met
 4  ACAUAGCAAUAUUACGGAAA  Condition not met
 5  UAGAAGCAAUAUUACGAAUU      Condition met
 6  UCACAGCAAUAUUACGGAGG  Condition not met
 7  ACCAAGCAAUAUUACGUAGC  Condition not met
 8  AGCUAGCAAUAUUACGGGGU  Condition not met
 9  GGCCAGCAAUAUUACGCACU      Condition met
10  GCAGAGCAAUAUUACGCCUU  Condition not met
11  AGAGAGCAAUAUUACGAACC      Condition met
12  UACCAGCAAUAUUACGUACU      Condition met
13  CAGGAGCAAUAUUACGGCGC  Condition not met
14  CCAAAGCAAUAUUACGUAUG      Condition met
15  GAUAAGCAAUAUUACGCAAC      Condition met
16  CGCCAGCAAUAUUACGGGUG  Condition not met
17  UAAUAGCAAUAUUACGUGGG  Condition not met
18  UUGGAGCAAUAUUACGAGUG  Condition not met
19  AUUUAGCAAUAUUACGGUGG  Condition not met
20  ACACAGCAAUAUUACGCUUC  Condition not met
21  GGGCAGCAAUAUUACGGGAU      Condition met
22  GGGGAGCAAUAUUACGGCGG      Condition met
23  AAGCAGCAAUAUUACGUUAG  Condition not met
24  UUAUAGCAAUAUUACGCAGU      Condition met
25  CAUGAGCAAUAUUACGUACG      Condition met
26  GUUCAGCAAUAUUACGGACA      Condition met
27  AGUAAGCAAUAUUACGUAAU  Condition not met
28  GCGGAGCAAUAUUACGACUC      Condition met
29  GGCAAGCAAUAUUACGAUCA      Condition met
30  GAUCAGCAAUAUUACGAAAG      Condition met
31  GAUCAGCAAUAUUACGCACC      Condition met
32  AUUCAGCAAUAUUACGGCGA      Condition met
33  UCAAAGCAAUAUUACGUAAU  Condition not met
34  GGCAAGCAAUAUUACGCGGC  Condition not met
35  CGCAAGCAAUAUUACGCCGU      Condition met
36  CACAAGCAAUAUUACGGGCA      Condition met
37  UGCAAGCAAUAUUACGCGGU  Condition not met
38  GUCGAGCAAUAUUACGUAGC      Condition met
39  GAACAGCAAUAUUACGCCGG      Condition met
40  CGGGAGCAAUAUUACGACGC  Condition not met
41  UAGGAGCAAUAUUACGAGUG      Condition met
42  AAAAAGCAAUAUUACGAUGU      Condition met
43  AUGGAGCAAUAUUACGUGAG  Condition not met
44  CCCAAGCAAUAUUACGAAGA  Condition not met
45  CGGAAGCAAUAUUACGCCCU      Condition met
46  GUGGAGCAAUAUUACGCGUG      Condition met
47  UAUGAGCAAUAUUACGUCCA  Condition not met
48  GGUGAGCAAUAUUACGCCUG      Condition met
49  GCGAAGCAAUAUUACGUGCC  Condition not met
50  UACCAGCAAUAUUACGAAAU      Condition met
51  AAUCAGCAAUAUUACGGGCG      Condition met
52  UAAAAGCAAUAUUACGCGAC  Condition not met
53  UCAGAGCAAUAUUACGAAAU  Condition not met
54  GUUGAGCAAUAUUACGCUAU  Condition not met
55  CCCAAGCAAUAUUACGGUCA  Condition not met
56  CAAUAGCAAUAUUACGGGUA  Condition not met
57  GGUUAGCAAUAUUACGUACA      Condition met
58  GUAGAGCAAUAUUACGCAGG      Condition met
59  GUUCAGCAAUAUUACGCACC      Condition met
60  CAAGAGCAAUAUUACGUCUU      Condition met
61  GCGGAGCAAUAUUACGACGU  Condition not met
62  GUUUAGCAAUAUUACGAGUU  Condition not met
63  ACCGAGCAAUAUUACGUUUC  Condition not met
